Data origin, for the record: PubChem BioAssay

Reported inhibition values for a set of compounds
Test: CRL1545 cell growth, single agent and combined, cisplatin and BGB IC20 combos (AID 1671464);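 further: cells exposed to compound for 96 hours before readout; 0% = vehicle DMSO and 100% = high DMSO killing control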
Conditions: CRL1545 osteosarcoma cells, measured here: with cisplatin IC20 combination, at 0.5 µM, stronger effect = higher value
Reply numerically in %, unit not repeated.

Examples with their reported inhibition follow.
1. O=C(O)[C@H](Cc1c[nH]c2ccccc12)N1C(=O)c2ccccc2C1=O : -43.9
2. Cc1cn([C@@H]2O[C@H](CO)[C@@H](O)[C@@H]2F)c(=O)[nH]c1=O : 14.6

The record that follows has no inhibition shown yet.
Which inhibition value belongs to O=c1cc(N2CCOCC2)oc2c1ccc1ccccc12 ?
28

* * *

Test: drug combination growth inhibition, ovarian cancer – cell-based, oncology-focused library, rucaparib conditional, profiling panel (AID 1508598)
Conditions: patient-derived ovarian cancer cells, CellTiter-Glo viability, 144 h; at 0.0781 µM; OCI-C5x cells; without rucaparib
Active and inactive are the calls of the source.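 How the source made its calls: active means normalized viability below 100% at a tested concentration; inactive means the rest.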
Response enum: active, inactive

1. C#Cc1cccc(Nc2ncnc3cc(OC)c(OCCCCCCC(=O)NO)cc23)c1 : inactive
2. CNc1nc(-c2ccc3c(N)n[nH]c3c2)cc(N2C[C@@H](C(=O)NC3CCCCC3)CC[C@H]2C)n1 : inactive
3. COc1cc2c(Oc3ccc4[nH]c(C)cc4c3F)ncnc2cc1OCCCN1CCCC1 : inactive
4. O=C(CCCCCCC(=O)Nc1ccc([C@H]2O[C@@H](CSc3nc(-c4ccccc4)c(-c4ccccc4)o3)C[C@@H](c3ccc(CO)cc3)O2)cc1)NO : inactive
5. Nc1ccc(C(=O)Nc2cccc(-c3nc(N4CCOCC4)c4oc5ncccc5c4n3)c2)cn1 : inactive
6. CN(C)Cc1ccc(-c2nc3cccc4c3n2CCNC4=O)cc1 : inactive
7. Cc1cc(N2CCOCC2)cc2[nH]c(-c3c(NC[C@@H](O)c4cccc(Cl)c4)cc[nH]c3=O)nc12 : inactive
8. Cc1nc2c(-c3cnc(N)nc3)nc(N3CCOCC3)nc2n1C(C)C : inactive

Given Cn1cc(-c2ccc3nnc(C(F)(F)c4ccc5ncccc5c4)n3n2)cn1 , state the outcome it received in this test.
inactive

Now consider C=CC(=O)N1CCC[C@@H](n2nc(-c3ccc(Oc4ccccc4)cc3)c3c(N)ncnc32)C1 and answer again.
inactive

Now consider O=C(O)c1ccc2c(c1)nc(Nc1cccc(Cl)c1)c1ccncc12 and answer again.
inactive

* * *

Experiment: viability loss in pontine glioma line – cell-based, JHH-DIPG-1, MIPE4.0, CellTiter-Glo, qHTS, dose response (AID 1347062);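 further: cells exposed to compound for two days before readout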
Conditions: JHH-DIPG-1 viability, CellTiter-Glo ATP luminescence
Inconclusive results are not listed. Active and inactive are the calls of the source. No cut-off is given here; in the data, nearly all actives have AC50 up to about 27 µM.
Response enum: active, inactive

Given CC(C)n1nc(-c2cc3cc(O)ccc3[nH]2)c2c(N)ncnc21 , state the outcome it received in this test.
active

Now consider CCN(CC)CCCCNc1nc2cc(Cl)c(Cl)cc2nc1-c1ccc(-c2cccs2)s1 and answer again.
active

* * *

Reported cell count values for a set of compounds
Assay: viability loss with induced miR-34 in A549 – imaging, A549 dox-inducible miR-34, nuclei and caspase counts, primary screen (AID 1347080)
Conditions: A549 miR-34 inducible, Hoechst nuclei count, 48 h; measured here: total cells without miR-34 induction
Response field accepts a number only; no unit should be typed.

1) CCCCn1c(=O)c2[nH]c(C34CC5CC(CC3C5)C4)nc2n(CCCO)c1=O : 5060

Which cell count value belongs to CCCCC[C@H](O)/C=C/[C@H]1CC[C@H](O)[C@@H]1C/C=C\CCCC(=O)O ?
6400

Now consider CC(=O)OCC(=O)[C@@]12N=C(C)O[C@@H]1CC1C3CCC4=CC(=O)C=C[C@]4(C)C3[C@@H](O)C[C@@]12C (some centres undefined) and answer again.
6910

Now consider Cn1cncc1[C@@](N)(c1ccc(Cl)cc1)c1ccc2c(c1)c(-c1cccc(Cl)c1)cc(=O)n2C and answer again.
4560

Now consider CCc1cc(Nc2nccc(-c3c(-c4ccc(OC)c(C(=O)Nc5c(F)cccc5F)c4)nc4ccccn34)n2)c(OC)cc1N1CCC(N2CCN(S(C)(=O)=O)CC2)CC1 and answer again.
6540

Now consider Nc1ncnc2c1c(-c1cccc(OCc3ccccc3)c1)cn2C1CC(CN2CCCC2)C1 (centres undefined) and answer again.
1430

Now consider COc1ccc(/C=C/c2ccccc2F)cc1 and answer again.
6700

Now consider Nc1ccc(-c2ccc3ncc4ccc(=O)n(-c5cccc(C(F)(F)F)c5)c4c3c2)cn1 and answer again.
1410

Now consider CC1(C)CCC(C)(C)c2cc(C3(c4ccc(C(=O)O)cc4)OCCO3)ccc21 and answer again.
9580

Now consider COc1cc(OC2CCN(C)CC2)ccc1Nc1ncc2c(n1)n(C1CCCC1)c(=O)n2C and answer again.
5490

Now consider CCCCC[C@H](O)/C=C/[C@H]1[C@H](O)CC(=O)[C@@H]1CC(=O)CCCCC(=O)O and answer again.
6680

* * *

Test: growth inhibition of DIPG cells – cell-based, MIPE4.0 library, CellTiter-Glo luminescence, qHTS (AID 1347066);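 further: cells exposed to compound for 48 hours before readout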
Details: SU-DIPG-VI viability, CellTiter-Glo ATP luminescence
Results filed as inconclusive are left out. Calls of active or inactive are those of the source. Cut-off not given; nearly all actives show AC50 up to about 30 µM.
Response enum: active, inactive

Check out these entries, answers already filled in.
1) Cc1ccc(NC(=O)C2(c3ccc4c(c3)OC(F)(F)O4)CC2)nc1-c1cccc(C(=O)O)c1 : active
2) O=C(O)CCCCC(CCSCc1ccccc1)SCc1ccccc1 (stereo not drawn) : inactive
3) COc1cc(OC)cc(-c2ccc3ncc4ccc(=O)n(-c5ccc(N6CCNCC6)c(C(F)(F)F)c5)c4c3c2)c1 : active
4) Nc1ncnc2c1c(-c1cnc3[nH]ccc3c1)nn2C1CCCC1 : active
5) C[C@@H]1C(=O)OC2[C@H](O)[C@]34[C@H]5C[C@@H](C(C)(C)C)[C@]36[C@@H](OC(=O)[C@@H]6O)O[C@@]4(C(=O)O5)[C@]21O (stereo partly drawn) : inactive

Given O=S(=O)(O)CCSSCCS(=O)(=O)O , state the outcome it received in this test.
inactive

Now consider CS(=O)(=O)c1ccc(-c2cnc(N)c(C(=O)Nc3ccccc3)n2)cc1 and answer again.
inactive

Now consider CNC(=O)[C@H](Cc1ccccc1)NC(=O)[C@H](CC(C)C)[C@H](CSc1cccs1)C(=O)NO and answer again.
inactive

Now consider CC(C)[C@H](O)C(=O)N[C@@H](C)C(=O)N[C@@H]1C(=O)N(C)CCc2ccccc21 and answer again.
inactive

Now consider COc1ccc(S(=O)(=O)Nc2cc(-c3c(O)ccc4ccccc34)c(O)c3ccccc23)cc1 and answer again.
active

* * *

Experiment: MELAS cybrid and Rieske KO viability enhancers – cell-based, MELAS cybrids, Rieske KO mouse fibroblasts, CellTiter-Glo, primary screen (AID 1508586);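 further: z relative to plate mean and SD of compound and empty wells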
Details: Rieske KO mouse fibroblast survival, low glucose, CellTiter-Glo 72 h
readout.kind: z-score
Response field accepts a number only; no unit should be typed.

1. c1ccc2c(CCNc3ccc(Nc4ccncc4)cc3)c[nH]c2c1 : -0.307

Which z-score value belongs to C#Cc1cccc(Nc2ncnc3cc4c(cc23)OCCOCCOCCO4)c1 ?
0.164

Now consider CC(=O)N1CCN(CCOc2ccc(C3CCN(C4=Nn5c(nnc5C(F)(F)F)CC4)CC3)cc2)CC1 and answer again.
-0.339

Now consider CC(=O)Nc1nc(C)c(-c2ccc(Cl)c(S(=O)(=O)NCCO)c2)s1 and answer again.
1.03

Now consider Cc1nc2c([nH]1)CCN(C(=O)c1ccc(NC(=O)c3ccccc3-c3ccccc3)cc1)c1ccccc1-2 and answer again.
0.668

Now consider CC(C)(C)NCC(O)COc1nsnc1N1CCOCC1 (centres undefined) and answer again.
-0.152

Now consider CO/N=C(\C(=O)N[C@@H]1C(=O)N2C(C(=O)O)=C(COC(C)=O)CS[C@H]12)c1csc(N)n1 (stereo in doubt) and answer again.
-0.136

* * *

Test: drug combination growth inhibition, ovarian cancer – cell-based, oncology-focused library, rucaparib conditional, profiling panel (AID 1508598)
Conditions: patient-derived ovarian cancer cells, CellTiter-Glo viability, 144 h; at 0.0195 µM; OCI-C5x cells; without rucaparib
Activity calls are given as the source filed them.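 Rule for the calls: active = normalized viability below 100% at a tested concentration; inactive = the rest.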
Response enum: active, inactive

Check out these entries, answers already filled in.
1. COc1cc2nccc(Oc3ccc(NC(=O)Nc4cc(C)on4)c(Cl)c3)c2cc1OC : active
2. CCN1CCN(Cc2ccc(-c3cc4c(N[C@H](C)c5ccccc5)ncnc4[nH]3)cc2)CC1 : inactive
3. CO[C@@H](C(=O)N1Cc2[nH]nc(NC(=O)c3ccc(N4CCN(C)CC4)cc3)c2C1)c1ccccc1 : active
4. CN1CCC(CNc2ccc3ncc(-c4cccc(OC(F)(F)F)c4)n3n2)CC1 : inactive

Let us examine a further case.
Given COc1ccc(S(=O)(=O)Nc2cccnc2Nc2ccc(O)cc2)cc1 , state the outcome it received in this test.
inactive
